LD50 values by entry
methodDescription: in vivo
conditionContext: mouse, po
Report field: quantity (unit follows the number).

Q: Provide one value: measured LD50 of NC(=O)CN1CCCC1=O [Piracetam, 2-oxo-1-pyrrolidineacetamide]
Ans: 8000 mg/kg

Next:
Q: Provide one value: measured LD50 of Fc1ccc(C(c2ccc(F)cc2)N2CCN(C/C=C/c3ccccc3)CC2)cc1
Ans: 232 mg/kg

----------
LD50 values by entry
methodDescription: in vivo
conditionContext: mouse, ip
Return type: number; implicit unit mg/kg.

Q: Provide one value: measured LD50 of Fc1ccc(C(c2ccc(F)cc2)N2CCN(C/C=C/c3ccccc3)CC2)cc1
Ans: 204

Further cases:
Q: Provide one value: measured LD50 of NC(=O)CN1CCCC1=O [Piracetam, 2-oxo-1-pyrrolidineacetamide]
Ans: 8000
